- ASSAY DETAILS: Kinetic solubility of compound in water at pH7 by HPLC analysis
- DETAILS: pH 7
Catalogue of compounds with associated solubility kinetic
A number alone suffices; assume µg/mL.

Example entries and their recorded answers appear below.
{"columns": ["COMPOUND", "UNIT", "MEASUREMENT"],
 "data": [
  ["O=[N+]([O-])c1cn2c(n1)OC(COc1ccc(C(F)(F)F)cn1)CC2 (stereo not given)", "µg/mL", 37],
  ["CC1(COc2ccc(C(F)(F)F)cn2)CCn2cc([N+](=O)[O-])nc2O1 (stereo not given)", "µg/mL", 19],
  ["O=[N+]([O-])c1cn2c(n1)OC(COc1ccc(Cl)cn1)CC2 (stereo not given)", "µg/mL", 18],
  ["C[C@@]1(COc2ccc(C(F)(F)F)nc2)CCn2cc([N+](=O)[O-])nc2O1", "µg/mL", 15],
  ["CC1(COc2ncc(C(F)(F)F)cc2F)CCn2cc([N+](=O)[O-])nc2O1 (stereo not given)", "µg/mL", 13],
  ["CC1(COc2ccc(Cl)cn2)CCn2cc([N+](=O)[O-])nc2O1 (stereo not given)", "µg/mL", 23],
  ["CC1(COc2ncc(C(F)(F)F)cc2Cl)CCn2cc([N+](=O)[O-])nc2O1 (stereo not given)", "µg/mL", 11],
  ["CC1(COc2ccc(C(F)(F)F)nc2)CCn2cc([N+](=O)[O-])nc2O1 (stereo not given)", "µg/mL", 7.3],
  ["C[C@]1(COc2ccc(C(F)(F)F)nc2)CCn2cc([N+](=O)[O-])nc2O1", "µg/mL", 12]
]}

Would you kindly look at the next entry?
Exercise: Return reported solubility kinetic; argument: CC1(COc2ccc(C(F)(F)F)nn2)CCn2cc([N+](=O)[O-])nc2O1 (stereo not given)
Solution: 10

###

Each record here notes measured inhibition in vivo at 50 mg/kg.
- Test system: Leishmania infantum
- ASSAY DETAILS: Antileishmanial activity against Leishmania infantum amastigotes infected in golden hamster assessed as reduction in parasite load in spleen tissue at 50 mg/kg, po administered once daily for 5 days relative to control
- Format: functional
- DETAILS: 120 h, time 5 day
Please respond with the number in % and leave the unit unwritten.

{"columns": ["MOLECULE", "inhibition in vivo at 50 mg/kg / %"],
 "data": [
  ["CC1(COc2ccc(OC(F)(F)F)cc2)CCn2cc([N+](=O)[O-])nc2O1 (stereo not given)", 99.7],
  ["C[C@]1(COc2ccc(C(F)(F)F)cn2)CCn2cc([N+](=O)[O-])nc2O1", 47.1],
  ["C[C@@]1(COc2ccc(OC(F)(F)F)cc2)CCn2cc([N+](=O)[O-])nc2O1", 99.9],
  ["C[C@]1(COc2ccc(OC(F)(F)F)cc2)CCn2cc([N+](=O)[O-])nc2O1", 98]
]}

Read the next record carefully.
Exercise: // returns reported inhibition in vivo at 50 mg/kg for input C[C@@]1(COc2ccc(C(F)(F)F)cn2)CCn2cc([N+](=O)[O-])nc2O1
Solution: 52.3

###

- ASSAY DETAILS: Clearance in mouse at 1 mg/kg, iv measured upto 24 hrs LC-MS/MS analysis
- DETAILS: in vivo
Below, each entry is listed with its recorded clearance at 24 h.
Your answer should be a plain number; it is taken to be in mL/min/kg.

Here are 3 molecules together with their reported answers.
{"columns": ["MOLECULE", "EXPERIMENTAL ENDPOINT", "MEASUREMENT"],
 "data": [
  ["C[C@@]1(COc2ccc(C(F)(F)F)nc2)CCn2cc([N+](=O)[O-])nc2O1", "clearance at 24 h", 6],
  ["CC1(COc2ccc(C(F)(F)F)cn2)CCn2cc([N+](=O)[O-])nc2O1 (configuration not stated)", "clearance at 24 h", 31],
  ["CC1(COc2ccc(C(F)(F)F)nc2)CCn2cc([N+](=O)[O-])nc2O1 (configuration not stated)", "clearance at 24 h", 4.1]
]}

Exercise: Name the reported clearance at 24 h value associated with the molecule O=[N+]([O-])c1cn2c(n1)OC(COc1ccc(C(F)(F)F)nc1)CC2 (configuration not stated)
Solution: 5.4

Exercise: Suppose we examine the molecule O=[N+]([O-])c1cn2c(n1)OC(COc1ncc(Cl)cn1)CC2 (configuration not stated) ; what clearance at 24 h value has been reported?
Solution: 7.3

Exercise: clearance at 24 h for CC1(COc2ccc(Cl)cn2)CCn2cc([N+](=O)[O-])nc2O1 (configuration not stated) ?
Solution: 8.3

Exercise: Given the molecule C[C@]1(COc2ccc(C(F)(F)F)nc2)CCn2cc([N+](=O)[O-])nc2O1 , what is its reported clearance at 24 h?
Solution: 6.6
